System: E18 rat cortical neuron-glia co-culture
Assay: fiber score / MBP score (myelination specific beyond OL differentiation) (ratio); higher = more myelination-specific MBP alignment
Conditions: 5 µM; treatment time: 8 days (DIV5-DIV13)
PARAMETER MEASURED: fiber score / MBP score
When you answer, write just the number.

These recorded examples may help you get a feel for the data.
1) NC(=O)OCCCc1ccccc1 [Phenprobamate] = 0.885
2) C[C@H]1CCC[C@H](O)CCCCCc2cc(O)cc(O)c2C(=O)O1 [Zeranol] = 0.876
3) COc1cc(N)c(Cl)cc1C(=O)NC1CN2CCC1CC2 (stereo unspecified) [Zacopride] = 0.884
4) CN1C(=O)COc2c(C(=O)NC3CN4CCC3CC4)cc(Cl)cc21 (stereo unspecified) [Azasetron] = 0.901

Query: Using the record for NCCc1ccccn1 [2-(2-aminoethyl)pyridine] , report its fiber score / MBP score.
Result: 0.699

Query: Using the record for CC(C)c1cccc(C(C)C)c1O [Propofol] , report its fiber score / MBP score.
Result: 0.895

====

System: E18 rat cortical neuron-glia co-culture
Experiment: myelination (MBP fiber length per Olig2+ nucleus), % of 1 µM DAPT response (DMSO = 0) (% of DAPT); higher = more myelination, active = 50 or more
Details: 5 µM; treatment time: 8 days (DIV5-DIV13)
Counter-ions that a name gives are not always drawn.
Overview of reported myelination across a group of compounds:

1. O=P1(N(CCCl)CCCl)NCCCO1 (stereo not given) [Cyclophosphamide] = -54.7 (inactive)

Query: Using the record for CN1[C@@H]2C[C@@H](OC(=O)[C@H](CO)c3ccccc3)C[C@H]1[C@@H]1O[C@@H]12 [Scopolamine hydrobromide] , report its myelination.
Result: -31.2 (inactive)

Query: Using the record for Oc1ccc2c3c1O[C@H]1[C@@H](O)CC[C@@]4(O)[C@@H](C2)N(CC2CCC2)CC[C@]314 , report its myelination.
Result: -7.9 (inactive)

Query: Using the record for COc1cc([C@@H]2c3cc4c(cc3[C@H](O)[C@H]3COC(=O)[C@H]23)OCO4)cc(OC)c1OC , report its myelination.
Result: -15.8 (inactive)

Query: Using the record for CN(C)C(=O)Oc1ccc[n+](C)c1 [Pyridostigmine Bromide] , report its myelination.
Result: -8.88 (inactive)

====

Overview of reported myelination across a group of compounds:
Test system: E18 rat cortical neuron-glia co-culture
Assay: myelination (MBP fiber length per Olig2+ nucleus), % of 1 µM DAPT response (DMSO = 0) (% of DAPT); higher = more myelination, active = 50 or more
Settings: 1 µM; treatment time: 8 days (DIV5-DIV13)
When you answer, write just the number.

These recorded examples may help you get a feel for the data.
1) CC(C)CC(N(C)C)C1(c2ccc(Cl)cc2)CCC1 (configuration not stated) = -9.43
2) O=C1CC[C@@]2(O)[C@H]3Cc4ccc(O)c5c4[C@@]2(CCN3CC2CC2)[C@H]1O5 [Naltrexone] = 14.8
3) CCN(CC)CCOC(=O)C(O)(c1ccccc1)c1ccccc1 = 1.93

Query: Using the record for COc1cc([C@@H]2c3cc4c(cc3[C@H](O)[C@H]3COC(=O)[C@H]23)OCO4)cc(OC)c1OC , report its myelination.
Result: -13.9

Query: Using the record for Cc1ccc(-c2nc3ccc(C)cn3c2CC(=O)N(C)C)cc1 , report its myelination.
Result: -6.37

Query: Using the record for C[N+]1(CCC(C(N)=O)(c2ccccc2)c2ccccc2)CCCCC1 , report its myelination.
Result: 4.83

Query: Using the record for Oc1cc2c(cc1O)[C@H]1c3ccccc3CN[C@@H]1CC2 (racemic) [Dihydrexidine] , report its myelination.
Result: -4.93

Query: Using the record for COc1ccc(C(CN(C)C)C2(O)CCCCC2)cc1 (configuration not stated) , report its myelination.
Result: -11.7

====

System: E18 rat cortical neuron-glia co-culture
Experiment: myelination (MBP fiber length per Olig2+ nucleus), % of 1 µM DAPT response (DMSO = 0) (% of DAPT); higher = more myelination, active = 50 or more
Conditions: 1 µM; treatment time: 8 days (DIV5-DIV13)
Overview of reported myelination across a group of compounds:
When you answer, write just the number.

These recorded examples may help you get a feel for the data.
1) C=C1C[C@@H]2[C@H](CC[C@]3(C)C(=O)CC[C@@H]23)[C@@]2(C)C=CC(=O)C=C12 [Exemestane] = -11.3
2) CS(=O)(=O)Nc1ccc(Cc2noc(-c3ccc4[nH]cc(CCN)c4c3)n2)cc1 = -19.6
3) COc1ccc2[nH]cc(CCN)c2c1 [5-Methoxytryptamine] = -6.66
4) O[C@@H]1CCCC[C@H]1N1CCC(c2ccccc2)CC1 (racemic) [Vesamicol] = -34.6
5) C[C@]12CC[C@H]3[C@@H](CCC4=CC(=O)CC[C@@]43C)[C@@H]1CC[C@@H]2O [Testosterone] = -4.77
6) CN(C)C(=O)Oc1ccc[n+](C)c1 [Pyridostigmine Bromide] = -14.3

Next compound, myelination to be filled in.
Query: Recorded myelination for CNCC(O)c1ccc(O)cc1 (centres undefined) [Synephrine] with E18 rat cortical neuron-glia co-culture, please?
Result: -6.47

====

Overview of reported myelination across a group of compounds:
System: E18 rat cortical neuron-glia co-culture
Experiment: myelination (MBP fiber length per Olig2+ nucleus), % of 1 µM DAPT response (DMSO = 0) (% of DAPT); higher = more myelination, active = 50 or more
Settings: 1 µM; treatment time: 8 days (DIV5-DIV13)
When you answer, write just the number.

These recorded examples may help you get a feel for the data.
1. C=CCN1CC[C@]23c4c5ccc(O)c4O[C@H]2C(=O)CC[C@@]3(O)[C@H]1C5 = -7.1
2. CC[C@@H]1C=CC=CC[C@H](C)[C@@H](O)[C@@H](C)C(=O)[C@H](C)[C@@H](O)[C@H](C)C(=O)[C@H](C)[C@@H](O)[C@H](C)C=CC(=O)O[C@H]2[C@@H](C)[C@@H](CC1)O[C@@]1(CC[C@@H](C)[C@@H](C[C@H](C)O)O1)[C@@H]2C = -6.58
3. CCCCC/C=C\C/C=C\C/C=C\C/C=C\CCCC(=O)Nc1ccc(O)cc1 = -0.524

Query: Using the record for CC(C)N(CCC(C(N)=O)(c1ccccc1)c1ccccn1)C(C)C (configuration not stated) [Disopyramide] , report its myelination.
Result: -13.9

Query: Using the record for COc1cc2c(cc1OC)[C@@]13CCN4CC5=CCO[C@H]6CC(=O)N2[C@H]1[C@H]6[C@H]5C[C@H]43 , report its myelination.
Result: -6.05

Query: Using the record for O=P1(N(CCCl)CCCl)NCCCO1 (configuration not stated) [Cyclophosphamide] , report its myelination.
Result: -41

Query: Using the record for CNC1CC(c2ccc(Cl)c(Cl)c2)c2ccccc21 (configuration not stated) , report its myelination.
Result: -58
